So I've got a bunch of binders here, and I need their pIC50 values.
- tgt: T1, human recombinant lipoxin A4 receptor (ALXR/FPRL1) expressed on HEK293 cells (human, UniProt P25090 1-351)
- T1 sequence (looked up): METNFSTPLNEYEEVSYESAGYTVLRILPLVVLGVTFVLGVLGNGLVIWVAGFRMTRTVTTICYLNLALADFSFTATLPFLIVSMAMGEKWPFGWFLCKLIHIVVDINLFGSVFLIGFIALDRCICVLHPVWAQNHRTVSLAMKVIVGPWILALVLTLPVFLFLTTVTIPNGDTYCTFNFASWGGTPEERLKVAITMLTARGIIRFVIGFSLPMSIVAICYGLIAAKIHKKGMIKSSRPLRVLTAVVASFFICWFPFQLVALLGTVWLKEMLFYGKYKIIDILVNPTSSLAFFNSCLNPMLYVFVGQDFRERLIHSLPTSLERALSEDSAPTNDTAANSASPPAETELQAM
- assayOverview: radioligand binding
pIC50: −log10 of the molar value. Ends that are not written are not given here.

> print(dat)
                                     binder  result
1  Ac-AMVSEFLKQAWFIENEEQEYVQTVK [ANXA1-derived peptide Ac2-26 (unlabelled)]   ~6.52

query: Any idea what pIC50 was measured for Ac-AMVSEFLKQAW [ANXA1-derived peptide Ac2-12] ?
result: ~6.52
